Listed below: inhibition at 30 µM values for each entry.
target: HIV-1 protease (Human immunodeficiency virus type 1 group M subtype B, UniProt P04585); assay: biochemical; conditions: read-out: HIV-1 Protease % Inhib, dose 30.000 uM

{"columns": ["compound", "inhibition at 30 µM, %"],
 "data": [
  ["O=c1oc2c(c(O)c1C(c1cccc(NS(=O)(=O)c3cccc(NS(=O)(=O)c4ccccc4)c3)c1)C1CC1)CCCCCC2 (stereo not shown) [Example 350]", 101],
  ["CCCCC1CCCCCc2c1oc(=O)c(C(c1ccccc1)C1CC1)c2O (stereo not shown) [Example 129]", 120],
  ["O=c1oc2c(c(O)c1C(c1ccccc1)C1CC1)CCCCCC2CC1CCCOC1 (stereo not shown) [Example 179]", 91.1],
  ["CCCC(c1ccccc1)c1c(O)c2c(oc1=O)CCCCCC2 (stereo not shown) [Example 369]", 93.9],
  ["CCCCS(=O)(=O)Nc1cccc(C(c2c(O)c3c(oc2=O)CCCCCC3)C2CC2)c1 (stereo not shown) [Example 326]", 121],
  ["CC(C)(C)OC(=O)N[C@@H](Cc1c[nH]cn1)C(=O)Nc1cccc(C(c2c(O)c3c(oc2=O)CCCCCC3)C2CC2)c1 (stereo partly shown) [Example 213]", 99.3],
  ["Cc1ccc(S(=O)(=O)n2cncc2C[C@H](NC(=O)OC(C)(C)C)C(=O)Nc2cccc(C(c3c(O)c4c(oc3=O)CCCCCC4)C3CC3)c2)cc1 (stereo partly shown) [Example 199]", 107],
  ["CCCc1ccc(S(=O)(=O)Nc2cccc(C(c3c(O)c4c(oc3=O)CCCCCC4)C3CC3)c2)cc1 (stereo not shown) [Example 342]", 105],
  ["O=c1oc2c(c(O)c1C(c1cccc(NS(=O)(=O)c3cccc(N4CCCS4(=O)=O)c3)c1)C1CC1)CCCCCC2 (stereo not shown) [Example 357]", 89.6],
  ["CCCC1CCCCCc2c1oc(=O)c([C@@H](c1ccccc1)C1CC1)c2O (mixture of isomers) [Example 232]", 95]
]}

----------
molecular target: HIV-1 protease (Human immunodeficiency virus type 1 group M subtype B); experiment: biochemical; conditions: read-out: HIV-1 Protease % Inhib, dose 1.000 uM
Listed below: inhibition at 1 µM values for each entry.
assayMetric: inhibition at 1 µM

{"columns": ["compound", "observedResult"],
 "data": [
  ["O=c1oc2ccccc2c(O)c1C1(c2ccccc2)CC1", "< 10%"],
  ["CC(=O)Oc1ccc(C(C)(C)c2c(O)c3ccccc3oc2=O)cc1", "< 10%"],
  ["CCCC(c1cccc(C)c1)c1c(O)c2ccccc2oc1=O (stereo not shown)", "< 10%"],
  ["CCC(c1cccc(NC(=O)c2ccccn2)c1)c1c(O)c2ccccc2oc1=O (stereo not shown)", "< 10%"],
  ["CCC(c1cccc(NC(=O)CCC2CCCCC2)c1)c1c(O)c2ccccc2oc1=O (stereo not shown)", "< 10%"],
  ["CCC(c1cccc(NC(=O)Cc2ccccc2)c1)c1c(O)c2ccccc2oc1=O (stereo not shown)", "< 10%"],
  ["CCC(c1ccccc1OC)c1c(O)c2ccccc2oc1=O (stereo not shown)", "< 10%"],
  ["CCC(=O)c1ccc(C(CC)c2c(O)c3ccccc3oc2=O)cc1 (stereo not shown)", "< 10%"],
  ["CC(C)(C)OC(=O)CC(c1ccccc1)c1c(O)c2ccccc2oc1=O (stereo not shown)", "< 10%"],
  ["CCC(c1ccc(OC)cc1)c1c(O)c2ccccc2oc1=O (stereo not shown)", "< 10%"]
]}

meta.source: patent US5686486A
